# Test system: OCI-Ly19
# PROTOCOL SUMMARY: CellTiter-Glo Luminescent cell viability assay, OCI-Ly19
# Format: cell-based
# CONDITION DESCRIPTION: Homo sapiens, OCI-Ly19 cell line, 72 hours at 37° C., read-out: ED50 (the source's name)
QUANTITY: EC50 (nM)

# ITEM SMILES, EC50 (nM)
data = [
    ("Cc1cc(-c2nc(C(=O)Nc3cc4oc(N5CCOCC5)nc4nc3N3CC[C@@H](O)C3)co2)ccn1", 2200),
]

A = Cc1ccc(-n2nc(C3CCN(C(C)C)CC3)cc2NC(=O)c2cccc(-c3cnn(CC(N)=O)c3)n2)nc1
B = CC[C@@H]1[C@H](F)C(=O)N[C@@H]1COc1nccc2cc(C(N)=O)c(OC)cc12
Which value of EC50 is smaller, the one for A or the one for B ? The response must carry the label of the picked entry.
A
(A: 1220 nM, B: 5870 nM)

====

Form field: EC50 (one value per entry).
# Test system: MWCL-1
# PROTOCOL SUMMARY: CellTiter-Glo Luminescent cell viability assay, MWCL-1
# Assay type: cell-based
# CONDITION DESCRIPTION: MWCL-1 cell line, 72 hours at 37° C., read-out: ED50 (the source's name)
// units = µM; emit number, no label

Entry Cc1ccc(-n2nc(C3CCN(C(C)C)CC3)cc2NC(=O)c2cccc(-c3cnn(CC(N)=O)c3)n2)nc1 — recorded EC50 = 6.92

Entry Cc1cc(-c2nc(C(=O)Nc3cc4oc(N5CCOCC5)nc4nc3N3CC[C@@H](O)C3)co2)ccn1 — recorded EC50 = 11.9

Entry CC[C@@H]1[C@H](F)C(=O)N[C@@H]1COc1nccc2cc(C(N)=O)c(OC)cc12 — recorded EC50 = 18.3

====

Form field: pEC50 (one value per entry).
# System: BCWM.1
# PROTOCOL SUMMARY: CellTiter-Glo Luminescent cell viability assay, BCWM.1
# Type: cell-based
# CONDITION DESCRIPTION: BCWM1, BCWM.1 cell line, 72 hours at 37° C., read-out: ED50 (the source's name)
API: returns pEC50 as number; meaning -log10 of concentration in mol/L.

Worked set:
# ITEM SMILES, READOUT NUMBER
data = [
    ("Cc1cc(-c2nc(C(=O)Nc3cc4oc(N5CCOCC5)nc4nc3N3CC[C@@H](O)C3)co2)ccn1", 5.70),
    ("CC[C@@H]1[C@H](F)C(=O)N[C@@H]1COc1nccc2cc(C(N)=O)c(OC)cc12", 4.96),
]

# evaluate next
Entry Cc1ccc(-n2nc(C3CCN(C(C)C)CC3)cc2NC(=O)c2cccc(-c3cnn(CC(N)=O)c3)n2)nc1 — recorded pEC50 = 5.48
